This collection of values is drawn from a collection of fitness landscapes (doi:10.1016/j.celrep.2020.107928).

B1: Caulobacter ParB omega fusion; a variant is named by its letters at X, in order, B8GW30 (parent)
chain: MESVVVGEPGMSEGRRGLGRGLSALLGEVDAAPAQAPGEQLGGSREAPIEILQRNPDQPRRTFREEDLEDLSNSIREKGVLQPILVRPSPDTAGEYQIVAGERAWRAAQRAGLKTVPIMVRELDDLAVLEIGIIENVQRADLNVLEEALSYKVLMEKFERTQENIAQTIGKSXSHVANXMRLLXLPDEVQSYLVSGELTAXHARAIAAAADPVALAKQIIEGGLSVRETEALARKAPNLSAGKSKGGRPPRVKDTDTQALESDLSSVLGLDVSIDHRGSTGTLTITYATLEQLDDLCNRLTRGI

Variants of: B1
Assay: one-hybrid fitness for binding NBS DNA (the Noc-binding site; scaled: cognate 1, non-cognate 0); higher = stronger binding
Details: with NBS DNA site
In all, about 81,000 sequences were measured (“one-hybrid fitness for binding NBS DNA”: median about -0.1, highest 2% from about 0.36 on). The sample holds the highest values, similar sequences and a random draw of the others, so the mix is not that of the screen.
quantity-name: one-hybrid fitness for binding NBS DNA

Solved cases below.
* KRVH | ≤ 0.2
* KRKS | 0.536
* QQMT | 0.499
* QQMN | ≤ 0.2
* QQMF | ≤ 0.2
* KRVD | ≤ 0.2
* QQMD | ≤ 0.2
* TATP | ≤ 0.2

INPUT: // Input: `KRKP` . Output its one-hybrid fitness for binding NBS DNA only.
OUTPUT: ≤ 0.2

INPUT: // Input: `QQMR` . Output its one-hybrid fitness for binding NBS DNA only.
OUTPUT: 0.584

INPUT: // Input: `KRKY` . Output its one-hybrid fitness for binding NBS DNA only.
OUTPUT: 0.368

INPUT: // Input: `KRVY` . Output its one-hybrid fitness for binding NBS DNA only.
OUTPUT: ≤ 0.2

INPUT: // Input: `QSFH` . Output its one-hybrid fitness for binding NBS DNA only.
OUTPUT: ≤ 0.2

INPUT: // Input: `QPFR` . Output its one-hybrid fitness for binding NBS DNA only.
OUTPUT: ≤ 0.2
